Where do these numbers come from? They come from patent US11795173B1.

Assignment: determine reported HHEP Clh for the given molecules.
assay: hHEP stability, predicted human hepatic clearance; type: in vitro ADME; conditions: well-stirred model, 0.5×10^6 viable cells/mL
Answers are plain numbers, in mL/min/kg.

molecule: CNC(=O)c1ccc(N2CCN(Cc3ccc4c5c(c(=O)[nH]c4c3)CCO5)CC2)c(Cl)n1 [Comp. Ex. 2, reference compound]
unit_info: mL/min/kg
measured_value: 6.6

As a next step, examine the molecule that follows.
Query :: # get_value(readout='HHEP Clh', item= CNC(=O)c1ccc(N2CCN(Cc3cc(F)c4c5c(c(=O)[nH]c4c3)COC5)CC2)c(F)n1 [Comp. Ex. 3, reference compound] )
Result :: 7.1
